Target: the molecule itself
Assay: SEC; as a1, but the more diluted sample of mutants with dilution-dependent behaviour (footnote b of Table 1; broken lines in Fig. 5 and Fig. S9)
For each of the proteins below, state its stoichiometry N.

List stoichiometry N for every entry below, keeping the order given.
1. PaUGP R57A (enzyme, UDP-glucose pyrophosphorylase of Pseudomonas aeruginosa (galU), residues 1-279, point mutant of Strep-PaUGP; Same construct as m1; source: E. coli BL21(DE3), purified (Strep-Tactin Sepharose); not shown: Strep-tagII, N-terminal, kept) MIKKCLFPAAGYGTRFLPATKAMPKEMLPVVNKPLIQYAVEEALEAGLSEIGIVTGAGKRSLEDHFDISYELEHQIRNTDKEKYLVGIRRLIDECTFAYTRQVEMKGLGHAILTGRPLIGDEPFAVVLADDLCLNLEGDSVLKQMVKLYNQFRCSIVAIQEVPPEETNKYGVIAGEMIRDDIFRVNTMVEKPKPEEAPSNLAIIGRYILTPDIFDLIEQTEPGKGGEIQITDALMKQAQDGCVLAYKFKGKRFDCGSAEGYIEATNFCYENLYKTGKAH
2. PaUGP R101A (enzyme, UDP-glucose pyrophosphorylase of Pseudomonas aeruginosa (galU), residues 1-279, point mutant of Strep-PaUGP; Same construct as m1; source: E. coli BL21(DE3), purified (Strep-Tactin Sepharose); not shown: Strep-tagII, N-terminal, kept) MIKKCLFPAAGYGTRFLPATKAMPKEMLPVVNKPLIQYAVEEALEAGLSEIGIVTGRGKRSLEDHFDISYELEHQIRNTDKEKYLVGIRRLIDECTFAYTAQVEMKGLGHAILTGRPLIGDEPFAVVLADDLCLNLEGDSVLKQMVKLYNQFRCSIVAIQEVPPEETNKYGVIAGEMIRDDIFRVNTMVEKPKPEEAPSNLAIIGRYILTPDIFDLIEQTEPGKGGEIQITDALMKQAQDGCVLAYKFKGKRFDCGSAEGYIEATNFCYENLYKTGKAH
3. PaUGP R101K (enzyme, UDP-glucose pyrophosphorylase of Pseudomonas aeruginosa (galU), residues 1-279, point mutant of Strep-PaUGP; Same construct as m1; source: E. coli BL21(DE3), purified (Strep-Tactin Sepharose); not shown: Strep-tagII, N-terminal, kept) MIKKCLFPAAGYGTRFLPATKAMPKEMLPVVNKPLIQYAVEEALEAGLSEIGIVTGRGKRSLEDHFDISYELEHQIRNTDKEKYLVGIRRLIDECTFAYTKQVEMKGLGHAILTGRPLIGDEPFAVVLADDLCLNLEGDSVLKQMVKLYNQFRCSIVAIQEVPPEETNKYGVIAGEMIRDDIFRVNTMVEKPKPEEAPSNLAIIGRYILTPDIFDLIEQTEPGKGGEIQITDALMKQAQDGCVLAYKFKGKRFDCGSAEGYIEATNFCYENLYKTGKAH

Result block:
[2.4, 1.8, 2.1]
